biological target: UniProt P23975
Sequence (P23975 whole entry): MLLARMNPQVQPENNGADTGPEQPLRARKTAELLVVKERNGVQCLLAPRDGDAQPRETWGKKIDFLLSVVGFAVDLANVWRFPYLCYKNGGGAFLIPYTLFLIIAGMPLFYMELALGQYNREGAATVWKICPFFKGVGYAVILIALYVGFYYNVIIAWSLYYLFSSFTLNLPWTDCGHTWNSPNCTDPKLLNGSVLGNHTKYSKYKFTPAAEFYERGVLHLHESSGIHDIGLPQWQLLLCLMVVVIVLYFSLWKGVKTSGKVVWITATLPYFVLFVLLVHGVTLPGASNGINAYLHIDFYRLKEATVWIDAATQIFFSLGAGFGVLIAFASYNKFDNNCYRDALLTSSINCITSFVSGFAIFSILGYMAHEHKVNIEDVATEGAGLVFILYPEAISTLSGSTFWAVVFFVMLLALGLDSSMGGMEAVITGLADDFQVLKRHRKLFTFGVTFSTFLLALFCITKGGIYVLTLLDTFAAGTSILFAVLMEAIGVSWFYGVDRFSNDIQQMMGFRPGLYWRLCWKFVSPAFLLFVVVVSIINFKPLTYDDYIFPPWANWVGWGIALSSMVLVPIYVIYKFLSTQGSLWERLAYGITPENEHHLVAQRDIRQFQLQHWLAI
OBSERVED_PROPERTY: AC50

Some compounds with known AC50 results, for comparison:
- COMPOUND: "CCn1c(=O)c2c(nc(/C=C/c3ccc(OC)c(OC)c3)n2C)n(CC)c1=O [ISTRADEFYLLINE]"
  AC50: "> 30 µM"
- COMPOUND: "O=C(Cc1cccs1)N[C@@H]1C(=O)N2C(C(=O)[O-])=C(C[n+]3ccccc3)CS[C@H]12 [CEPHALORIDINE]"
  AC50: "> 30 µM"
- COMPOUND: "CS(=O)(=O)Nc1ccc([N+](=O)[O-])cc1Oc1ccccc1 [NIMESULIDE]"
  AC50: "> 30 µM"

Give one value of AC50 per listed compound.
1. COc1cccc2c1C(=O)c1c(O)c3c(c(O)c1C2=O)C[C@@](O)(C(=O)CO)C[C@@H]3O[C@H]1C[C@H](N)[C@H](O[C@@H]2CCCCO2)[C@H](C)O1 [PIRARUBICIN]
2. Cc1ccc(O)c([C@H](CCN(C(C)C)C(C)C)c2ccccc2)c1 [TOLTERODINE]
3. Cc1c(C)c2c(c(C)c1O)CCC(C)(COc1ccc(CC3SC(=O)NC3=O)cc1)O2 (stereo not given) [TROGLITAZONE]
4. Cn1c(CCCC(=O)O)nc2cc(N(CCCl)CCCl)ccc21 [BENDAMUSTINE]
5. CCCCCCO[C@@H](C)c1cccc(-c2csc(NC(=O)c3cc(Cl)c(/C=C(\C)C(=O)O)c(Cl)c3)n2)c1OC [LUSUTROMBOPAG]
6. CN1CCc2c(c3ccccc3n2Cc2ccccc2)C1 [MEBHYDROLIN]
7. CN1CCC(N(Cc2cccs2)c2ccccc2)CC1 [THENALIDINE]
8. CC1=C(/C=C/C(C)=C/C=C/C(C)=C\C(=O)O)C(C)(C)CCC1 [ISOTRETINOIN]

Result block:
> 30 µM
> 30 µM
4.11 µM
> 30 µM
> 30 µM
8.13 µM
0.399 µM
> 30 µM

Give one value of AC50 per listed compound.
1. [H]/N=C(/N)NS(=O)(=O)c1ccc(N)cc1 [SULFAGUANIDINE]
2. CN1C(C(=O)Nc2ccccn2)=C(OC(=O)/C=C/c2ccccc2)c2ccccc2S1(=O)=O [PIROXICAM CINNAMATE]
3. CC1=C(/C=C/C(C)=C\C=C\C(C)=C\C(=O)O)C(C)(C)CCC1 [ALITRETINOIN]
4. CN(C)CCN(Cc1ccccc1)c1ccccn1 [TRIPELENNAMINE]
5. COc1ccc(C(=O)c2ccccc2)c(O)c1 [OXYBENZONE]

Result block:
1: > 30 µM; 2: > 30 µM; 3: > 30 µM; 4: 2.62 µM; 5: 11.6 µM

Give one value of AC50 per listed compound.
1. CCCCCCCC/C=C\CCCCCCCC(=O)O [OLEIC ACID]
2. Cc1ccc(C(C)C)c(O)c1 [THYMOL]

Result block:
1. 27.2 µM
2. 23.3 µM

----------
Endpoint: AC50. System: Sodium-dependent dopamine transporter (Homo sapiens, UniProt Q01959). Items follow. Note: assay procedure not described here.
Sequence (Q01959 whole entry): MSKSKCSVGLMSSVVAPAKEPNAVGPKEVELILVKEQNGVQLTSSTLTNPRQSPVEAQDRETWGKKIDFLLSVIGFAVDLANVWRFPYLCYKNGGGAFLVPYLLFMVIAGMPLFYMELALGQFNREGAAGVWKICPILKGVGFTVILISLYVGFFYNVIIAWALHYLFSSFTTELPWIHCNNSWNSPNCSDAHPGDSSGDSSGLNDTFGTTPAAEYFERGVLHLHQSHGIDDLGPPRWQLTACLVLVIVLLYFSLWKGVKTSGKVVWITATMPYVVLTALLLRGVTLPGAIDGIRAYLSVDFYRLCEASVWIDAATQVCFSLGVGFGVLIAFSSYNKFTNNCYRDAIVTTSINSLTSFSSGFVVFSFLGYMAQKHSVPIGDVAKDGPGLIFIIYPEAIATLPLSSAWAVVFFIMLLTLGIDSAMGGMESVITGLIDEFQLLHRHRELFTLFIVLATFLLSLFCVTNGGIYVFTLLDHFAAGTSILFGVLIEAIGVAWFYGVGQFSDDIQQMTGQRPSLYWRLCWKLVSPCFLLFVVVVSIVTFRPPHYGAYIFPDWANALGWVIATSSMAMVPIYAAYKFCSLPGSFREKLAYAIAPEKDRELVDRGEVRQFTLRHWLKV

Some compounds with known AC50 results, for comparison:
- COMPOUND: "CCC(NC(C)C)C(O)c1ccc(O)c(O)c1 (centres undefined) [ISOETHARINE]"
  AC50: "19.6 µM"
- COMPOUND: "C[C@H](CCC(=O)O)[C@H]1CC[C@H]2[C@@H]3[C@H](O)C[C@@H]4C[C@H](O)CC[C@]4(C)[C@H]3CC[C@]12C [CHENODIOL]"
  AC50: "> 30 µM"

Give one value of AC50 per listed compound.
1. CCN(CC)CCn1c(=O)c(Cc2ccc(OC)cc2)nc2ccccc21 [CAROVERINE]
2. CCOC(=O)Nc1ccc(NCc2ccc(F)cc2)nc1N [FLUPIRTINE]

Result block:
1: > 30 µM; 2: > 30 µM
